Test target: Glu-plg (Homo sapiens)
Construct: 0.1 mM VLK-pNA, 50 nM Glu-plg and 50 U/ml u-PA
Sequence (P00747 20-810 limits assumed): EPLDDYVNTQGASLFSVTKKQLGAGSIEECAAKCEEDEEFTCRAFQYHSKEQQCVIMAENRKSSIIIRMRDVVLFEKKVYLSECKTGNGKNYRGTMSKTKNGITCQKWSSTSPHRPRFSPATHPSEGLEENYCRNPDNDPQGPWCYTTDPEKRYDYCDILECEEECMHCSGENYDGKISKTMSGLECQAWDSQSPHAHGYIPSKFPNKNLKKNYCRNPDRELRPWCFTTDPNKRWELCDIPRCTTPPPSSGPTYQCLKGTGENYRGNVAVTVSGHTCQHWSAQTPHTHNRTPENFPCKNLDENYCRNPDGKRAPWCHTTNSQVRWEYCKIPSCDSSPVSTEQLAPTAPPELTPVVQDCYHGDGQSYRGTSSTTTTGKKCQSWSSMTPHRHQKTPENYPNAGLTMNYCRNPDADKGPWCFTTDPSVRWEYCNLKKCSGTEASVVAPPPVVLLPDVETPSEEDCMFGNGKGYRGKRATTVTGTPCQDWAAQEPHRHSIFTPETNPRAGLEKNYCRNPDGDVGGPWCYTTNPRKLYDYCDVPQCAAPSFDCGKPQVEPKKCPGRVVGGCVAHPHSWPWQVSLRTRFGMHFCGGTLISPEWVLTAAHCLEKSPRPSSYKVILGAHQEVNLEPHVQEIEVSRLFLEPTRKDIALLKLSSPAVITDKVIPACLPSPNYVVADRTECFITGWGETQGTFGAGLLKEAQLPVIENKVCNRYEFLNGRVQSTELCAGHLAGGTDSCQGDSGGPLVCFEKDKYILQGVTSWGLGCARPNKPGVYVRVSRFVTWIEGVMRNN
Assay overview: Plasminogen (plg) activation enhancing activity by urokinase catalysis, VLK-pNA chromogenic assay (Example 30, Table 24)
Type: biochemical
Experimental context: fold enhancement of plasminogen activation at maximum, control without SMTP compound = 1
Maximum enhancing activity: Multiplication factor: recorded values
Experimental readout: Maximum enhancing activity: Multiplication factor

> print(dat)
                                    compound             test.target  reported.result
 1  CC(C)=CCC/C(C)=C/CC[C@]1(C)Oc2c(c(O)cc3c2CN(c2ccc(S(=O)(=O)O)cc2)C3=O)C[C@@H]1O [Compound I-19]  Glu-plg (Homo sapiens)               60
 2  CC(C)=CCC/C(C)=C/CC[C@]1(C)Oc2c(c(O)cc3c2CN([C@@H](C(=O)O)c2ccc(O)cc2)C3=O)C[C@@H]1O [Compound I-23]  Glu-plg (Homo sapiens)               22
 3  CC(C)=CCC/C(C)=C/CC[C@]1(C)Oc2c(c(O)cc3c2CN([C@@H](Cc2ccc(O)cc2)C(=O)O)C3=O)C[C@H]1O [Compound I-26]  Glu-plg (Homo sapiens)               76
 4  CC(C)=CCC/C(C)=C/CC[C@]1(C)Oc2c(c(O)cc3c2CN(c2ccc(C(=O)O)cc2O)C3=O)C[C@@H]1O [Compound I-6]  Glu-plg (Homo sapiens)               65
 5  CC(C)=CCC/C(C)=C/CC[C@]1(C)Oc2c(c(O)cc3c2CN(c2ccccc2C(=O)O)C3=O)C[C@@H]1O [Compound I-4]  Glu-plg (Homo sapiens)               51
 6  CC(C)=CCC/C(C)=C/CC[C@]1(C)Oc2c(c(O)cc3c2CN(c2cc(C(=O)O)ccc2O)C3=O)C[C@@H]1O [Compound I-10]  Glu-plg (Homo sapiens)               43
 7  CC(C)=CCC/C(C)=C/CC[C@]1(C)Oc2c(c(O)cc3c2CN(c2c(O)cccc2C(=O)O)C3=O)C[C@@H]1O [Compound I-7]  Glu-plg (Homo sapiens)               37
 8  CC(C)=CCC/C(C)=C/CC[C@]1(C)Oc2c(c(O)cc3c2CN([C@H](C(=O)O)c2ccc(O)cc2)C3=O)C[C@@H]1O [Compound I-22]  Glu-plg (Homo sapiens)               18
 9  CC(C)=CCC/C(C)=C/CC[C@]1(C)Oc2c(c(O)cc3c2CN(c2cccc(C(=O)O)c2O)C3=O)C[C@@H]1O [Compound I-8]  Glu-plg (Homo sapiens)               91
10  CC(C)=CCC/C(C)=C/CC[C@]1(C)Oc2c(c(O)cc3c2CN(c2ccc(C(=O)O)cc2)C3=O)C[C@@H]1O [Compound I-2]  Glu-plg (Homo sapiens)              126
11  CC(C)=CCC/C(C)=C/CC[C@]1(C)Oc2c(c(O)cc3c2CN(c2cccc(C(=O)O)c2)C3=O)C[C@@H]1O [Compound I-3]  Glu-plg (Homo sapiens)               52
12  CC(C)=CCC/C(C)=C/CC[C@]1(C)Oc2c(c(O)cc3c2CN([C@H](C(=O)O)c2cccc(O)c2)C3=O)C[C@@H]1O (racemic) [Compound I-25]  Glu-plg (Homo sapiens)               29
13  CC(C)=CCC/C(C)=C/CC[C@]1(C)Oc2c(c(O)cc3c2CN(c2ccc(C(=O)O)c(O)c2)C3=O)C[C@@H]1O [Compound I-5]  Glu-plg (Homo sapiens)              158
